- protocol summary: First-in-human single-ascending-dose study: plasma pharmacokinetics
- Assay type: in vivo
- condition label: human, plasma, po, 5 mg, single oral 5 mg fasted, powder-in-bottle, n = 6, geometric mean (CV %), read-out: t1/2 (converted)
experimental endpoint: half-life (h)
Numbers only; they are read as h.

[ask] Hello, please tell me recorded half-life for this one: CS(=O)(=O)c1ccc(-c2cnc(N)c(-c3ccc(C(F)(F)F)nc3)c2)cc1 [MMV390048]
[reply] 154

====

- protocol summary: First-in-human single-ascending-dose study: plasma pharmacokinetics
- Assay type: in vivo
- condition label: human, plasma, po, 5 mg, single oral 5 mg fasted, powder-in-bottle, n = 6, median (range), read-out: Tmax
experimental endpoint: Tmax

[ask] Hello, please tell me recorded Tmax for this one: CS(=O)(=O)c1ccc(-c2cnc(N)c(-c3ccc(C(F)(F)F)nc3)c2)cc1 [MMV390048]
[reply] 1 h

====

- protocol summary: First-in-human single-ascending-dose study: plasma pharmacokinetics
- Type: in vivo
- condition label: human, plasma, po, 80 mg, single oral 80 mg fasted, powder-in-bottle, n = 6, geometric mean (CV %), read-out: Vz/F
experimental endpoint: Vd/F (L)
Numbers only; they are read as L.

[ask] Hello, please tell me recorded Vd/F for this one: `CS(=O)(=O)c1ccc(-c2cnc(N)c(-c3ccc(C(F)(F)F)nc3)c2)cc1`
[reply] 444

====

- protocol summary: First-in-human single-ascending-dose study: plasma pharmacokinetics
- Assay type: in vivo
- condition label: human, plasma, po, 80 mg, single oral 80 mg fasted, powder-in-bottle, n = 6, median (range), read-out: Tmax
experimental endpoint: Tmax (h)
Numbers only; they are read as h.

[ask] Hello, please tell me recorded Tmax for this one: `CS(=O)(=O)c1ccc(-c2cnc(N)c(-c3ccc(C(F)(F)F)nc3)c2)cc1`
[reply] 1

====

- protocol summary: First-in-human single-ascending-dose study: plasma pharmacokinetics
- Format: in vivo
- condition label: human, plasma, po, 40 mg, single oral 40 mg fasted, powder-in-bottle, n = 6, geometric mean (CV %)
experimental endpoint: AUC(0-inf) (µg·h/mL)
Numbers only; they are read as µg·h/mL.

[ask] Hello, please tell me recorded AUC(0-inf) for this one: CS(=O)(=O)c1ccc(-c2cnc(N)c(-c3ccc(C(F)(F)F)nc3)c2)cc1 [MMV390048]
[reply] 17.6

====

- protocol summary: First-in-human single-ascending-dose study: plasma pharmacokinetics
- Assay type: in vivo
- condition label: human, plasma, po, 40 mg, single oral 40 mg FED (high-fat breakfast), powder-in-bottle, n = 6, geometric mean (CV %), read-out: t1/2 (converted)
experimental endpoint: half-life (h)
Numbers only; they are read as h.

[ask] Hello, please tell me recorded half-life for this one: CS(=O)(=O)c1ccc(-c2cnc(N)c(-c3ccc(C(F)(F)F)nc3)c2)cc1 [MMV390048]
[reply] 223

====

- protocol summary: Induced blood-stage malaria (IBSM) study: plasma pharmacokinetics
- Assay type: in vivo
- condition label: human, single oral 20 mg fasted, powder-in-bottle, n = 6, median (range)
experimental endpoint: Tmax (h)
Numbers only; they are read as h.

[ask] Hello, please tell me recorded Tmax for this one: `CS(=O)(=O)c1ccc(-c2cnc(N)c(-c3ccc(C(F)(F)F)nc3)c2)cc1`
[reply] 2

====

- protocol summary: Induced blood-stage malaria (IBSM) study: plasma pharmacokinetics
- Format: in vivo
- condition label: human, single oral 20 mg fasted, powder-in-bottle, n = 6, geometric mean (CV %)
experimental endpoint: Cmax (ng/mL)
Numbers only; they are read as ng/mL.

[ask] Hello, please tell me recorded Cmax for this one: `CS(=O)(=O)c1ccc(-c2cnc(N)c(-c3ccc(C(F)(F)F)nc3)c2)cc1`
[reply] 106

====

- protocol summary: First-in-human single-ascending-dose study: plasma pharmacokinetics
- Assay type: in vivo
- condition label: human, plasma, po, 40 mg, single oral 40 mg fasted, powder-in-bottle, n = 6, median (range), read-out: Tmax
experimental endpoint: Tmax (h)
Numbers only; they are read as h.

[ask] Hello, please tell me recorded Tmax for this one: CS(=O)(=O)c1ccc(-c2cnc(N)c(-c3ccc(C(F)(F)F)nc3)c2)cc1 [MMV390048]
[reply] 2.5

====

- protocol summary: First-in-human single-ascending-dose study: plasma pharmacokinetics
- Format: in vivo
- condition label: human, plasma, oral, fasted cohorts, read-out: median time of maximum concentration (Tmax)
experimental endpoint: Tmax

[ask] Hello, please tell me recorded Tmax for this one: `CS(=O)(=O)c1ccc(-c2cnc(N)c(-c3ccc(C(F)(F)F)nc3)c2)cc1`
[reply] 1 to 2.5 h

====

- protocol summary: First-in-human single-ascending-dose study: plasma pharmacokinetics
- Format: in vivo
- condition label: human, plasma, po, 20 mg, single oral 20 mg fasted, powder-in-bottle, n = 6, median (range), read-out: Tmax
experimental endpoint: Tmax (h)
Numbers only; they are read as h.

[ask] Hello, please tell me recorded Tmax for this one: `CS(=O)(=O)c1ccc(-c2cnc(N)c(-c3ccc(C(F)(F)F)nc3)c2)cc1`
[reply] 2
